- experimental-system: T1, Tumor Necrosis Factor-alpha (TNF-α), R&D systems 210-TA / 210-TA-CF (human, UniProt P01375 77-233)
- T1 construct: Bought protein; also called huTNF-α
- T1 sequence (P01375 77-233 limits assumed): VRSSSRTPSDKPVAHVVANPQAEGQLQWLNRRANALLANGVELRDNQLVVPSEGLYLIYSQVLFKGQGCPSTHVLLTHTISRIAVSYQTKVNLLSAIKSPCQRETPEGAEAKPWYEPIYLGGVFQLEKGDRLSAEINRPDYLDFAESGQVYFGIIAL
- protocol: biolayer interferometry (Octet QK); biotinylated TNF-α on streptavidin sensor, antibody 8 nM to 1 nM
pKd: −log10 of the molar value.
reported-endpoint: pKd

Below, each entry is followed by its recorded pKd result.
1. anti-TNF-α antibody Ab3 (antibody, V domains shown) VH: QSVEESGGRLVTPGTPLTLTCKVSGFSLSSYDMTWVRQAPGKGLEWIGYIWNDGSTAYASWATGRFTISKTSTTVDLKIASPTTEDTATYFCARGPVFATTLGYYFTI VL: MDTRAPTQLLGLLLLWLPGSTFAIKVTQTPASVSAAVGGTVSINCQASEDIESYLAWYQQKPGQPPKLLLYDASALASGVPSRFKGSGSGTEYTLTISGVECADAATYYCQQGYSYSNVDNS	10.40 to 10.70
2. anti-TNF-α antibody Ab15 (antibody, V domains shown) VH: QSVEESGGRLVSPGTPLTLTCTVSGIDLSSYGMGWVRQAPGKGLEYIGYMIASGITYYAAWAKGRFTISKTSSTTVDLKITSPTTEDTATYFCARNYYGMDP VL: ADIVMTQTPASVSEPVGGTVTIKCQASQSIYSSFSWYQQIPGQRPKLLIYYASTLASGVPSRFSGSGSGTDFTLTISDLECADAATYYCQSNHGSNGDSFGNA	11.00

Next binder, pKd to be filled in.
Lookup result for anti-TNF-α antibody Ab12 (antibody, V domains shown) VH: QSVEESGGRLVTPGTPLTLTCTVSGFSLSHYAMGWVRQAPGKGLEWIGIISSNGVTYYATWASGRFTISKTSTTVDLKITSPTTEDTATYFCARGDDTSIIYYIYAFDL VL: ALVMTQTPSPVSAAVGGTVTISCQSSESVVFNNRLSWYQQKPGQPPKLLIYWASTLASGVPSRFKGSGSGTQFTLTISGVECDDAATYYCAGYKSYSNDDFA ; measured pKd: 10.60 to 11.00
